Documented pIC50 across a set of compounds
target: Kappa-type opioid receptor (Cavia porcellus, UniProt P41144)
Sequence (P41144 whole entry): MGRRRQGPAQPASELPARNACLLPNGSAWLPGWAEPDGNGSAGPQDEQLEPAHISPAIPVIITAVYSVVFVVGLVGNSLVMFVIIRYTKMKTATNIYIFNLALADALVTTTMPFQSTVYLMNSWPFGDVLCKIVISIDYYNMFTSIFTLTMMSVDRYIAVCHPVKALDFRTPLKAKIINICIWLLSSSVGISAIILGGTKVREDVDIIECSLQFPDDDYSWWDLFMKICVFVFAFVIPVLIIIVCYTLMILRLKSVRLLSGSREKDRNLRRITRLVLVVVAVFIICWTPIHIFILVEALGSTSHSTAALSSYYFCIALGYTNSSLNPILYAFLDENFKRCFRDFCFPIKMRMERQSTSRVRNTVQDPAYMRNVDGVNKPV
pIC50: −log10 of the molar value.

Request: Given the compound COc1ccc2[nH]c3c(c2c1)C1(c2cccc(O)c2)CCN(C)C(C3)C1 (racemic) , what is its reported pIC50?
Result: < 6.00

Request: Query: pIC50; subject: C=CCN1C[C@H](C)N([C@H](c2ccc(C(=O)N(CC)CC)cc2)c2cccc(OC)c2)C[C@H]1C
Result: < 6.00

Request: Look up pIC50 for this compound: CN1CCC2(c3ccccc3)CC1Cc1[nH]c3ccccc3c12 (racemic)
Result: < 5.00

Values compiled from ChEMBL document CHEMBL1129071.
